From: patent US12624096B2

# test_system: htau40 (Homo sapiens, UniProt P10636)
# Sequence (P10636 1-441 isoform P10636-8): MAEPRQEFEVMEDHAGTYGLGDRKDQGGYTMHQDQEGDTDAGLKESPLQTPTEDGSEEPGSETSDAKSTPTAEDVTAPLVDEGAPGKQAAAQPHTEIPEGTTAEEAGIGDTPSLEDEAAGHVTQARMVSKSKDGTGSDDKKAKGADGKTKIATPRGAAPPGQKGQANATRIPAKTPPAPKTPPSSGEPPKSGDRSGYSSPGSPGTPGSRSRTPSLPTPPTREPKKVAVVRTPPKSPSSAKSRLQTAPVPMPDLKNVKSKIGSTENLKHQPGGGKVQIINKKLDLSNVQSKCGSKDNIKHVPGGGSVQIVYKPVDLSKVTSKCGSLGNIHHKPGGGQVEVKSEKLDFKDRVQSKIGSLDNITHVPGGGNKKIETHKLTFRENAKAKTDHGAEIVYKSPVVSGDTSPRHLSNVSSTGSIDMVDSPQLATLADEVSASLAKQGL
# measurement_notes: Biacore X100 SPR of anti-tau mAbs on immobilised htau40
# Type: binding
# condition_info: mAb, Table 27, immobilised hT40
// kd lookup, one value per entry

CA4: anti-tau clone, SEQ ID NO: 368 (protein, CA4 amino acid sequence) QVQLQESGPSLVKPSQTLSLTCTVSGFSLTSYSVYWVRQAPGQALEWISIMYASGRVDYNPALKSRLSITRDTSKSQFSLSLSSVTTEDTAVYYCTRGIENWGPGLLVTVSSEGKSSGASGESKVDDDIQVTQSPSSLSASLTERVSITCRTSQSVNNYLSWYQQKPGQAPKLLIYYATRLYTDVPSRFSGSGSGTDYTLTITSLEADDTATYYCLQYDSTPLAFGGGTNVEIK = 0.001276 s⁻¹

Request: Fill blank: measured kd of the molecule CC7: anti-tau clone, SEQ ID NO: 365 (protein, CC7 amino acid sequence) scFv: QVQLQESGPSLVKPSQTLSLTCTVSGFSLTSNAVIWVRQAPGKAPEWVALIDVDGDAAYDPALKSRLSITRDTSKSQVSLSLRSVTTEDTAVYYCARDYGSWGYVSDIDYWGPGLLVTVSSEGKSSGASGESKVDDRVVRTQPSSVSGSLGQRVSITCSGSYITGSSVGWFQQVPGSGLKTVIYDNNDRPSGVPDRFSGSKSGDTATLTISSLQAEDEADYYCASYDTSNIGLFGSGTRLTVLG is ____.
Response: 0.03164 s⁻¹
